Field: Emax. Provide a value for each of the compounds that follow.
Target: GCase (GBA) in human fibroblast cell line GM10915 harboring the L444P GBA mutation (Homo sapiens, UniProt P04062, L483P)
Construct: Human fibroblast cell line GM10915 harboring the L444P GBA mutation; host or cells: GM10915 human fibroblasts
Sequence (P04062 40-536 L483P): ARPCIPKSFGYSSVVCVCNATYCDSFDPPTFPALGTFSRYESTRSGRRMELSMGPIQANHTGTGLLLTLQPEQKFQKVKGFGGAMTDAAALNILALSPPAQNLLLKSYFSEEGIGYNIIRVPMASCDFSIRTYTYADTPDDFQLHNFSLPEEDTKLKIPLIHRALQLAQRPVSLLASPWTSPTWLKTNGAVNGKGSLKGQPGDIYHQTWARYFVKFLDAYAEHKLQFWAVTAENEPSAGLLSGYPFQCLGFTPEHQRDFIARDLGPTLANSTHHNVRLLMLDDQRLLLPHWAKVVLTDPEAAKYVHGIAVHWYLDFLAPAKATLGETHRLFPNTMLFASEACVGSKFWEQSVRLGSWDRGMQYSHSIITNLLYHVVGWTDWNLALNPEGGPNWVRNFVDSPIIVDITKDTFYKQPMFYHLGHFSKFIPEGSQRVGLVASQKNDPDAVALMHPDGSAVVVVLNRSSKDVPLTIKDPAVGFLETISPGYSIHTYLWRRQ
Test: GCase activity assay (4-MUG substrate, normalised to crystal violet staining) in L444P GBA fibroblasts
Type: cell-based
Details: maximum percent GCase activity relative to untreated cells in the dose range tested, 5 days exposure
// return numeric value only (unit: %, not printed)

Problem: Bench note: what Emax did CC1(C2=NOCC(CN3CCNC(C(F)(F)F)CC3)O2)CCNCC1 (racemic) [compound 500] show?
Solution: 166

Problem: Bench note: what Emax did CN(C)C12CCC(C3=NOCC(CN4CCCCC4)O3)(CC1)CC2 (racemic) [compound 640] show?
Solution: 183

Problem: Bench note: what Emax did CN1CCC(C2=NOCC(C)(CN3CCCCC3)O2)CC1 (stereo not drawn) [compound 870] show?
Solution: 217

Problem: Bench note: what Emax did C1CCN(CC2CON=C(C34CCN(CC3)C4)O2)CC1 (racemic) [compound 641] show?
Solution: 275

Problem: Bench note: what Emax did C1CCN(CC2CON=C(C3CCNC3)O2)CC1 (racemic) [compound 508] show?
Solution: 226

Problem: Bench note: what Emax did CC(C)(C1=NOCC(CN2CCCCC2)O1)C1CCNCC1 (racemic) [compound 477] show?
Solution: 181

Problem: Bench note: what Emax did O=c1[nH]nc2n1CCC(C1=NOCC(CN3CCCCC3)O1)C2 (stereo not drawn) [compound 668] show?
Solution: 116

Problem: Bench note: what Emax did c1cn2c(n1)CC(C1=NOCC(CN3CCCCC3)O1)CC2 (racemic) [compound 660] show?
Solution: 212

Problem: Bench note: what Emax did N[C@H]1CN[C@H](C2=NOCC(CN3CCCCC3)O2)C1 (stereo partly drawn) [compound 597] show?
Solution: 106

Problem: Bench note: what Emax did C[C@@]1(C2=NOC[C@H](CN3CCCCC3)O2)CCCNC1 [compound 882] show?
Solution: 214

Problem: Bench note: what Emax did CN(C)C(=O)[C@@]12CC[C@]1(C1=NOCC(CN3CCCCC3)O1)CNC2 (relative stereo) [compound 765] show?
Solution: 151

Problem: Bench note: what Emax did c1sc(C2CCCNC2)nc1C1=NOCC(CN2CCCCC2)O1 (stereo not drawn) [compound 876] show?
Solution: 180

Problem: Bench note: what Emax did CN1CC2(C)CN(CC3CON=C(C4(C)CCNCC4)O3)CC2(C)C1 (stereo not drawn) [compound 628] show?
Solution: 136

Problem: Bench note: what Emax did C1CCN(CCC2=NOCC(CN3CCCCC3)O2)CC1 (racemic) [compound 816] show?
Solution: 181

Problem: Bench note: what Emax did Fc1cccc(C2(C3=NOCC(CN4CCCCC4)O3)CCCNC2)n1 (stereo not drawn) [compound 598] show?
Solution: 179

Problem: Bench note: what Emax did CN1CC(C2=NOCC(CN3CCCCC3)N2)CC1=O (stereo not drawn) [compound 601] show?
Solution: 111

Problem: Bench note: what Emax did C1CCN(CC2CON=C([C@@]34CN[C@@H](CO3)C4)O2)CC1 (mixture of isomers) [compound 490] show?
Solution: 215

Problem: Bench note: what Emax did C1CCN(CC2CON=C(C3C4CNC3C4)O2)CC1 (racemic) [compound 548] show?
Solution: 281

----------
Field: Emax. Provide a value for each of the compounds that follow.
Target: GCase (GBA) in human fibroblast cell line GM10915 harboring the L444P GBA mutation (Homo sapiens, UniProt P04062, L483P)
Construct: Human fibroblast cell line GM10915 harboring the L444P GBA mutation; host or cells: GM10915 human fibroblasts
Experiment: GCase activity assay (4-MUG substrate, normalised to crystal violet staining) in L444P GBA fibroblasts
Format: cell-based
Details: maximum percent GCase activity relative to untreated cells in the dose range tested, 5 days exposure
// return numeric value only (unit: %, not printed)

Problem: Bench note: what Emax did CN1CC2(C1)CN(CC1CON=C(C3(C)CCNCC3)O1)C2 (stereo not drawn) show?
Solution: 105

Problem: Bench note: what Emax did c1cncc(CC2(C3=NOCC(CN4CCCCC4)O3)CCNC2)c1 (racemic) show?
Solution: 178

Problem: Bench note: what Emax did OC1CCC(C2=NOCC(CN3CCCCC3)O2)CC1 (stereo not drawn) show?
Solution: 119

Problem: Bench note: what Emax did N[C@@H]1CN[C@@H](C2=NOCC(CN3CCCCC3)O2)C1 (stereo partly drawn) show?
Solution: 115

Problem: Bench note: what Emax did C[C@]1(C2=NOC[C@@H](CN3CCCCC3)O2)CCCNC1 show?
Solution: 207

Problem: Bench note: what Emax did CN1CCC2CN(CC3CON=C(C4(C)CCNCC4)O3)CC2C1 (stereo not drawn) show?
Solution: 121

----------
Target: GCase (GBA) in human fibroblast cell line GM10915 harboring the L444P GBA mutation (Homo sapiens, UniProt P04062, L483P)
Construct: Human fibroblast cell line GM10915 harboring the L444P GBA mutation; host or cells: GM10915 human fibroblasts
Assay: GCase activity assay (4-MUG substrate, normalised to crystal violet staining) in L444P GBA fibroblasts
Type: cell-based
Conditions: concentration giving 150% GCase activity (1.5-fold induction), 5 days exposure, 8-point dose range
Quantity name: GBA EC1.5 (µM)
// return numeric value only (unit: µM, not printed)

Problem: Bench note: what GBA EC1.5 did CC1(C2=NOCC(CN3CCCCC3)O2)CCNCC1 (racemic) [compound 568] show?
Solution: 6

Problem: Bench note: what GBA EC1.5 did NC1CCC(C2=NOCC(CN3CCCCC3)O2)CC1 (racemic) show?
Solution: 26

Problem: Bench note: what GBA EC1.5 did COC1CN(C)CCC1C1=NOCC(CN2CCCCC2)O1 (racemic) show?
Solution: 11

Problem: Bench note: what GBA EC1.5 did C1CCN(CC2CON=C([C@@]34CN[C@@H](CO3)C4)O2)CC1 (mixture of isomers) show?
Solution: 11

Problem: Bench note: what GBA EC1.5 did C1CCN(CC2CON=C(C3(C4CCNCC4)CC3)O2)CC1 (racemic) show?
Solution: 19

Problem: Bench note: what GBA EC1.5 did CC(C)N1CCCC(C2=NOCC(CN3CCCCC3)O2)C1 (racemic) show?
Solution: 22

Problem: Bench note: what GBA EC1.5 did CC(=O)N1CCC(C2=NOCC(CN3CCCCC3)O2)C1 (stereo not drawn) show?
Solution: 50

Problem: Bench note: what GBA EC1.5 did c1cncc(CNCCC2=NOCC(CN3CCCCC3)O2)c1 (racemic) show?
Solution: 46

Problem: Bench note: what GBA EC1.5 did FC1(F)CNCCC1C1=NOCC(CN2CCCCC2)O1 (stereo not drawn) show?
Solution: 50

Problem: Bench note: what GBA EC1.5 did C[C@@H]1CNC[C@@]1(C)C1=NOCC(CN2CCCCC2)O1 (relative stereo) show?
Solution: 29

Problem: Bench note: what GBA EC1.5 did CC1(C2=NOCC(CN3CCCCC3)O2)CNCCO1 (racemic) show?
Solution: 16

Problem: Bench note: what GBA EC1.5 did NC(=O)CN1CCCC(C2=NOCC(CN3CCCCC3)O2)C1 (racemic) show?
Solution: 38

Problem: Bench note: what GBA EC1.5 did CN(C)CCCC1=NOCC(CN2CCCCC2)O1 (racemic) show?
Solution: 6

Problem: Bench note: what GBA EC1.5 did CC1(C2=NOCC(CN3CCCCC3)O2)CCCN1 (racemic) show?
Solution: 36

Problem: Bench note: what GBA EC1.5 did C1CCN(CC2CON=C(CC3CCCNC3)O2)CC1 (racemic) show?
Solution: 11

Problem: Bench note: what GBA EC1.5 did COCCC1(C2=NOCC(CN3CCCCC3)O2)CCNC1 (racemic) show?
Solution: 12

Problem: Bench note: what GBA EC1.5 did CN(C)C(=O)N1CCCC(C2=NOCC(CN3CCCCC3)O2)C1 (stereo not drawn) show?
Solution: 50

Problem: Bench note: what GBA EC1.5 did CN1CCCC(C(C)(C)C2=NOCC(CN3CCCCC3)O2)C1 (racemic) show?
Solution: 6

Problem: Bench note: what GBA EC1.5 did CC(C)N1CCC(C2=NOCC(CN3CCCCC3)O2)CC1 (racemic) show?
Solution: 10

Problem: Bench note: what GBA EC1.5 did CN(C)CC1(C2=NOCC(CN3CCCCC3)O2)CCN(C)C1 (racemic) show?
Solution: 7

Problem: Bench note: what GBA EC1.5 did CC1(C2=NOCC(CN3CCCCC3)O2)CNC1 (racemic) show?
Solution: 36

Problem: Bench note: what GBA EC1.5 did COc1ncc(CC2(C3=NOCC(CN4CCCCC4)O3)CCNCC2)cc1Cl (stereo not drawn) show?
Solution: 1

Problem: Bench note: what GBA EC1.5 did c1ncn2c1CC(C1=NOCC(CN3CCCCC3)O1)CC2 (racemic) show?
Solution: 8

Problem: Bench note: what GBA EC1.5 did CC(C)c1ccc(CC2(C3=NOCC(CN4CCCCC4)O3)CCNCC2)cn1 (stereo not drawn) show?
Solution: 1

Problem: Bench note: what GBA EC1.5 did CN1CCC(C2=NOCC(CN3CCCCC3)O2)C1 (stereo not drawn) [compound 629] show?
Solution: 11

Problem: Bench note: what GBA EC1.5 did c1cnc(N2CCC(C3=NOCC(CN4CCCCC4)O3)CC2)nc1 (stereo not drawn) show?
Solution: 50

Problem: Bench note: what GBA EC1.5 did C[C@@H]1CNC[C@H]1C1=NOCC(CN2CCCCC2)O1 (relative stereo) show?
Solution: 14

Problem: Bench note: what GBA EC1.5 did CN(C)c1ccc(CC2(C3=NOCC(CN4CCCCC4)O3)CCNCC2)cn1 (stereo not drawn) show?
Solution: 3

Problem: Bench note: what GBA EC1.5 did CC1(C2=NOCC(CN3CCC(F)(F)CC3)O2)CCNCC1 (racemic) show?
Solution: 49

Problem: Bench note: what GBA EC1.5 did C[C@@H]1CC(C2=NOCC(CN3CCCCC3)O2)C[C@H](C)N1 (mixture of isomers) show?
Solution: 5

Problem: Bench note: what GBA EC1.5 did C1CCN(CC2CON=C([C@]34CNC[C@H]3CCOC4)O2)CC1 (relative stereo) show?
Solution: 19

Problem: Bench note: what GBA EC1.5 did CC(C)(C1=NOCC(CN2CCCCC2)O1)C1CCCNC1 (racemic) show?
Solution: 9

Problem: Bench note: what GBA EC1.5 did CN(C)CC1CON=C(C2CCN(C)C2)O1 (stereo not drawn) show?
Solution: 45

Problem: Bench note: what GBA EC1.5 did Cc1ncccc1CC1(C2=NOCC(CN3CCCCC3)O2)CCNCC1 (racemic) show?
Solution: 5

Problem: Bench note: what GBA EC1.5 did Cn1ncc(CC2(C3=NOCC(CN4CCCCC4)O3)CCNCC2)n1 (stereo not drawn) show?
Solution: 35

Problem: Bench note: what GBA EC1.5 did CNC(=O)CN1CCCC(C2=NOCC(CN3CCCCC3)O2)C1 (racemic) show?
Solution: 33
